# assay-info: Circular dichroism (CD) spectroscopy of linear and stapled peptides in water or 40% TFE/water (Example 3)
# Type: physicochemical
# experimental-conditions: in water
Bridges are numbered along the chain shown (N, C = ends).
parameter-measured: [0]222/[0]208 ratio of ellipticities
Answer with a number only.

substance	parameter-measured	obs-value
Ac-(cyclo-11-15, cyclo-16-20)-KIKHVVKLKD[ENSQK][ESEVK]KLRSQLVKRIK-NH2 [Compound 267]	[0]222/[0]208 ratio of ellipticities	0.48

Task: Which [0]222/[0]208 ratio of ellipticities is listed for Ac-(cyclo-5,9)-VSKL[ESQLK]KRKQN-NH2 (Ac-VSKLESQLKKRKQN-NH2; lactam 5-9; SMILES CC(=O)N[C@H](C(=O)N[C@@H](CO)C(=O)N[C@@H](CCCCN)C(=O)N[C@@H](CC(C)C)C(=O)N[C@H]1CCC(=O)NCCCC[C@@H](C(=O)N[C@@H](CCCCN)C(=O)N[C@@H](CCCNC(=N)N)C(=O)N[C@@H](CCCCN)C(=O)N[C@@H](CCC(N)=O)C(=O)N[C@@H](CC(N)=O)C(N)=O)NC(=O)[C@H](CC(C)C)NC(=O)[C@H](CCC(N)=O)NC(=O)[C@H](CO)NC1=O)C(C)C) [Compound 151] ?
Result: 0.70

Task: Give the measured [0]222/[0]208 ratio of ellipticities of Ac-NLKQKIKHVVKLKDE-NH2 [Compound 156] .
Result: 0.11

Task: Given Ac-(cyclo-8,12)-NLKQKIK[EVVKK]KDE-NH2 (Ac-NLKQKIKEVVKKKDE-NH2; lactam 8-12; SMILES CC[C@H](C)[C@H](NC(=O)[C@H](CCCCN)NC(=O)[C@H](CCC(N)=O)NC(=O)[C@H](CCCCN)NC(=O)[C@H](CC(C)C)NC(=O)[C@H](CC(N)=O)NC(C)=O)C(=O)N[C@@H](CCCCN)C(=O)N[C@H]1CCC(=O)NCCCC[C@@H](C(=O)N[C@@H](CCCCN)C(=O)N[C@@H](CC(=O)O)C(=O)N[C@@H](CCC(=O)O)C(N)=O)NC(=O)[C@H](CCCCN)NC(=O)[C@H](C(C)C)NC(=O)[C@H](C(C)C)NC1=O) [Compound 161] , state its recorded [0]222/[0]208 ratio of ellipticities.
Result: 0.31

Task: // [0]222/[0]208 ratio of ellipticities lookup, key: Ac-(cyclo-5,9)-VSKL[KSQLE]KRKQN-NH2 (Ac-VSKLKSQLEKRKQN-NH2; lactam 5-9; SMILES CC(=O)N[C@H](C(=O)N[C@@H](CO)C(=O)N[C@@H](CCCCN)C(=O)N[C@@H](CC(C)C)C(=O)N[C@H]1CCCCNC(=O)CC[C@@H](C(=O)N[C@@H](CCCCN)C(=O)N[C@@H](CCCNC(=N)N)C(=O)N[C@@H](CCCCN)C(=O)N[C@@H](CCC(N)=O)C(=O)N[C@@H](CC(N)=O)C(N)=O)NC(=O)[C@H](CC(C)C)NC(=O)[C@H](CCC(N)=O)NC(=O)[C@H](CO)NC1=O)C(C)C) [Compound 154]
Result: 0.20

Task: Which value of [0]222/[0]208 ratio of ellipticities has been reported for Ac-(cyclo-4,8)-NLK[EKIKK]VVKLKDE-NH2 (Ac-NLKEKIKKVVKLKDE-NH2; lactam 4-8; SMILES CC[C@H](C)[C@@H]1NC(=O)[C@H](CCCCN)NC(=O)[C@@H](NC(=O)[C@H](CCCCN)NC(=O)[C@H](CC(C)C)NC(=O)[C@H](CC(N)=O)NC(C)=O)CCC(=O)NCCCC[C@@H](C(=O)N[C@H](C(=O)N[C@H](C(=O)N[C@@H](CCCCN)C(=O)N[C@@H](CC(C)C)C(=O)N[C@@H](CCCCN)C(=O)N[C@@H](CC(=O)O)C(=O)N[C@@H](CCC(=O)O)C(N)=O)C(C)C)C(C)C)NC(=O)[C@H](CCCCN)NC1=O) [Compound 157] in the records?
Result: 0.38

Task: Given the entry Ac-(cyclo-4,8)-VSK[ERSQK]VKRKQN-NH2 (Ac-VSKERSQKVKRKQN-NH2; lactam 4-8; SMILES CC(=O)N[C@H](C(=O)N[C@@H](CO)C(=O)N[C@@H](CCCCN)C(=O)N[C@H]1CCC(=O)NCCCC[C@@H](C(=O)N[C@H](C(=O)N[C@@H](CCCCN)C(=O)N[C@@H](CCCNC(=N)N)C(=O)N[C@@H](CCCCN)C(=O)N[C@@H](CCC(N)=O)C(=O)N[C@@H](CC(N)=O)C(N)=O)C(C)C)NC(=O)[C@H](CCC(N)=O)NC(=O)[C@H](CO)NC(=O)[C@H](CCCNC(=N)N)NC1=O)C(C)C) [Compound 150] , report its measured [0]222/[0]208 ratio of ellipticities.
Result: 0.53

Task: Item under review: Ac-(cyclo-6,10)-VSKLR[EQLVK]RKQN-NH2 (Ac-VSKLREQLVKRKQN-NH2; lactam 6-10; SMILES CC(=O)N[C@H](C(=O)N[C@@H](CO)C(=O)N[C@@H](CCCCN)C(=O)N[C@@H](CC(C)C)C(=O)N[C@@H](CCCNC(=N)N)C(=O)N[C@H]1CCC(=O)NCCCC[C@@H](C(=O)N[C@@H](CCCNC(=N)N)C(=O)N[C@@H](CCCCN)C(=O)N[C@@H](CCC(N)=O)C(=O)N[C@@H](CC(N)=O)C(N)=O)NC(=O)[C@H](C(C)C)NC(=O)[C@H](CC(C)C)NC(=O)[C@H](CCC(N)=O)NC1=O)C(C)C) [Compound 152] . Reported [0]222/[0]208 ratio of ellipticities?
Result: 0.61

Task: Recorded [0]222/[0]208 ratio of ellipticities for Ac-VSKLRSQLVKRKQN-NH2 [Compound 132] , please?
Result: 0.13
